# key: entry, value: pIC50
experiment: Inhibition of bovine trypsin by chromogenic assay using Bzl-L-Arg-pNA as chromogenic substrate; parameters: species or system Bos taurus; settings: read-out: IC50
pIC50: −log10 of the molar value.
Recorded metric: pIC50

1) CS(=O)(=O)c1ccc(OP(=O)(Oc2ccc(S(C)(=O)=O)cc2)C(NC(=O)OCc2ccccc2)c2ccc(NC(=N)N)cc2)cc1 (stereo not given) : 4.64
2) CCc1ccc(OP(=O)(Oc2ccc(CC)cc2)C(NC(=O)OCc2ccccc2)c2ccc(NC(=N)N)cc2)cc1 (stereo not given) : 7.77
3) COc1ccc(OP(=O)(Oc2ccc(OC)cc2)C(NC(=O)OCc2ccccc2)c2ccc(NC(=N)N)cc2)cc1 (stereo not given) : 6.60
4) Cc1ccc(OP(=O)(Oc2ccc(C)cc2)C(NC(=O)OCc2ccccc2)c2ccc(NC(=N)N)cc2)cc1 (stereo not given) : 6.75
5) CC(C)(C)c1ccc(OP(=O)(Oc2ccc(C(C)(C)C)cc2)C(NC(=O)OCc2ccccc2)c2ccc(NC(=N)N)cc2)cc1 (stereo not given) : 7.06
